test: GDH-TPI coupling enzyme inhibitors, primary screen, artefact control for M. tuberculosis FBA inhibitor project, biochemical, absorbance, full deck (AID 588335); conditions: GDH-TPI coupled enzyme counterscreen, NADH absorbance; at 4.8 µM
Hit rate of the full screen: of about 360,000 compounds, about 4,500 (1.2%) were called active. No stated cut-off is given here; in the data, active means inhibition above about 30%; inactive means the rest. This excerpt belongs to a sample that is enriched for actives.
Outcomes: active, inactive

- Compound: "Cc1ccc(C(=O)N/C(=C\\c2cn(S(=O)(=O)N(C)C)c3ccccc23)C(=O)N2CCCC2)cc1"
  Class Label: "inactive"
- Compound: "CN(C)C(=O)CCc1ccc2c3c([nH]c2c1)[C@]1(C)[C@@H](C(=O)N2CCOCC2)C[C@H](CC(=O)NCCc2ccccn2)C(=O)N1CC3"
  Class Label: "inactive"
- Compound: "Cc1ccc(C(=O)O)cc1N1C(=O)CCCC1=O"
  Class Label: "inactive"
- Compound: "O=C(NC1CC1)C1=C[C@H](c2coc3ccccc3c2=O)C[C@H](OCCCCO)O1"
  Class Label: "inactive"
- Compound: "Cc1noc(NS(=O)(=O)c2ccc(N/C=C/C(=O)c3ccccc3)cc2)c1C"
  Class Label: "active"
- Compound: "COC(=O)N/N=C/c1c[n+]([O-])c2ccccc2[n+]1[O-]"
  Class Label: "active"
- Compound: "COc1cc(/C=N/NC(=O)c2ccc(N3CCCC3=O)cc2)ccc1O"
  Class Label: "active"
- Compound: "NC(=S)c1ccc(C(N)=S)o1"
  Class Label: "active"
- Compound: "CCOc1cc(/C=C2\\SC(N3CCCCC3)=NC2=O)ccc1O"
  Class Label: "inactive"
- Compound: "O=C(NCCCN1CCCCCC1)c1ccc(N2CCCC2=O)cc1"
  Class Label: "inactive"
- Compound: "CC(=O)C1=C(C)NC2=C(C(=O)CC(C)(C)C2)C1C (centres undefined)"
  Class Label: "inactive"
- Compound: "C=CCOc1ccc(/C=N/n2cncn2)cc1OC"
  Class Label: "inactive"
- Compound: "Oc1cccc(CCc2ccccn2)c1"
  Class Label: "inactive"
- Compound: "Cc1cc(Br)ccc1NC(=S)NC1CCCC1"
  Class Label: "inactive"
- Compound: "c1ccc(-c2csc(N3CCc4ccccc4C3)n2)cc1"
  Class Label: "inactive"
- Compound: "CCOC(=O)c1c(NC(=S)SC)sc(C(=O)N2CCc3ccccc3C2)c1C"
  Class Label: "inactive"
- Compound: "C/C(=N\\NC(=S)NC1CCCCC1)c1ccc(C)o1"
  Class Label: "inactive"
- Compound: "CCOC(=O)c1c(C)[nH]c(C)c1C(=O)CSc1nc(N)cc(N)n1"
  Class Label: "inactive"
- Compound: "COc1ccc(-c2cc(C(=O)NC(Cc3c[nH]c4ccccc34)C(=O)O)c(C)o2)cc1OC (centres undefined)"
  Class Label: "inactive"
- Compound: "O=C(NNS(=O)(=O)c1ccccc1C(F)(F)F)c1cc2ncc(C(F)(F)F)cc2s1"
  Class Label: "inactive"
- Compound: "CCC(C)(C)NC(=O)C(c1ccc(O)cc1)N(Cc1ccco1)C(=O)CCC(=O)Nc1ccccn1 (centres undefined)"
  Class Label: "inactive"
- Compound: "O=C1N=C(N2CCc3ccccc3C2)S/C1=C\\c1ccc(O)cc1"
  Class Label: "active"
- Compound: "CC(=O)c1sc(N/N=C/c2ccc(C(C)C)cc2)nc1C"
  Class Label: "inactive"
- Compound: "CCCn1c(=S)[nH]c2ccc(C(F)(F)F)cc21"
  Class Label: "inactive"
- Compound: "Cc1ccccc1C(=O)Nc1ccccc1Sc1ccccc1"
  Class Label: "inactive"
- Compound: "Nc1nnn(CC(=O)N/N=C/c2ccccc2)n1"
  Class Label: "inactive"
- Compound: "Cc1cc(=O)[nH]c(N/N=C/c2ccc3c(c2)OCCO3)n1"
  Class Label: "active"
- Compound: "CC1(C)COC(c2cccn2Cc2ccccc2Cl)=N1"
  Class Label: "inactive"
- Compound: "CSc1ccccc1NC(=O)c1cc(Cl)sc1Cl"
  Class Label: "inactive"
- Compound: "CN(CC(O)COc1ccc(S(=O)(=O)N2CCOCC2)cc1Cl)C1CCCCC1 (centres undefined)"
  Class Label: "inactive"
- Compound: "CCCCOc1ccc(N(CC(=O)NCC2CCCO2)C(=O)CCC(=O)Nc2cc(C)ccn2)cc1 (centres undefined)"
  Class Label: "inactive"
- Compound: "Cc1ccc(Cc2nnc(SCC(=O)Nc3ccc(C)cc3C)[nH]c2=O)cc1"
  Class Label: "inactive"
- Compound: "CC1(c2ccccc2)NC(=O)N(CC(=O)N2CC(=O)Nc3ccccc32)C1=O (centres undefined)"
  Class Label: "inactive"
- Compound: "COc1cc(/C=C/C(=O)OCC(=O)NCCCc2ccccc2)ccc1O"
  Class Label: "inactive"
